This section presents substances with their documented IC50 values.
- target_desc: rat brain bradykinin receptors
- experiment: Radioligand competition binding against [3H]DALKD in rat brain membranes
- condition_parameters: Table 5; [3H]DALKD, rat brain bradykinin receptors, pH 7.4; read-out: IC50 (nM) at pH 7.4, N > 2
A number alone suffices; assume nM.

Some substances with recorded IC50:
Ask: Write down the reported IC50 (system: rat brain bradykinin receptors) of LRIRPKLK [LYS1040, Leu-Arg-Ile-Arg-Pro-Lys-Leu-Lys]
Result: 68

Ask: Write down the reported IC50 (system: rat brain bradykinin receptors) of GFLRIRPK [LYS1045, Gly-Phe-Leu-Arg-Ile-Arg-Pro-Lys]
Result: 130

Ask: Write down the reported IC50 (system: rat brain bradykinin receptors) of GFLRIRPKLK [LYS1042, Gly-Phe-Leu-Arg-Ile-Arg-Pro-Lys-Leu-Lys]
Result: 43

***
Ask: Write down the reported IC50 (system: rat brain bradykinin receptors) of LRIRPK [LYS1043, Leu-Arg-Ile-Arg-Pro-Lys]
Result: 180

Ask: Write down the reported IC50 (system: rat brain bradykinin receptors) of GFLRIR [Analogs J101, Gly-Phe-Leu-Arg-Ile-Arg]
Result: 620
